- System: 171881-019-R-J1-PDC tumor spheroid viability;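 further: spheroids exposed to compound for 7 days before viability read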
- Run Description: Anticancer human tumor 171881-019-R-J1-PDC patient-derived invasive breast carcinoma cell line growth inhibition [PI3K]; active means viability on the fitted dose curve at most 10% of control; inactive means the rest
- Condition Details: second compound 0.1 µM; first compound 10 µM; spheroids with HUVEC and MSC
Outcome field: choose from yes for active, no for inactive

{"Molecule": "C=CC(=O)N1CCN(c2nc(=O)n(-c3c(C)ccnc3C(C)C)c3nc(-c4c(O)cccc4F)c(F)cc23)C(C)C1 (stereo not given) + COc1c(OCCCN2CCOCC2)ccc2c3n(c(=NC(=O)c4cnc(N)nc4)nc12)CCN3", "Group Label": "yes"}
{"Molecule": "CCCS(=O)(=O)Nc1ccc(F)c(C(=O)c2c[nH]c3ncc(-c4ccc(Cl)cc4)cc23)c1F + Cc1nc(NC(=O)N2CCCC2C(N)=O)sc1-c1ccnc(C(C)(C)C(F)(F)F)c1", "Group Label": "no"}
{"Molecule": "C[C@@H](NC(=O)c1ncnc(N)c1Cl)c1ncc(C(=O)Nc2cc(C(F)(F)F)c(Cl)cn2)s1 + CC(Nc1ncnc2nc[nH]c12)c1cc2cccc(Cl)c2c(=O)n1-c1ccccc1", "Group Label": "no"}
{"Molecule": "CC(C)NCC(C(=O)N1CCN(c2ncnc3c2C(C)CC3O)CC1)c1ccc(Cl)cc1 (stereo not given) + COc1c(OCCCN2CCOCC2)ccc2c3n(c(=NC(=O)c4cnc(N)nc4)nc12)CCN3", "Group Label": "yes"}
{"Molecule": "CC(C)NCC(C(=O)N1CCN(c2ncnc3c2C(C)CC3O)CC1)c1ccc(Cl)cc1 (stereo not given) + Cc1nc(NC(=O)N2CCCC2C(N)=O)sc1-c1ccnc(C(C)(C)C(F)(F)F)c1", "Group Label": "yes"}

Input line: Please indicate how the test categorized C#Cc1c(F)ccc2cc(O)cc(-c3ncc4c(N5CC6CCC(C5)N6)nc(OCC56CCCN5CC(F)C6)nc4c3F)c12 (stereo not given) + COc1c(OCCCN2CCOCC2)ccc2c3n(c(=NC(=O)c4cnc(N)nc4)nc12)CCN3 .
Output line: yes

Input line: What would you report for CNC(=O)c1ccc(N2C(=S)N(c3ccc(C#N)c(C(F)(F)F)c3)C(=O)C2(C)C)cc1F + COc1c(OCCCN2CCOCC2)ccc2c3n(c(=NC(=O)c4cnc(N)nc4)nc12)CCN3 ?
Output line: yes

Input line: What would you report for C[C@@H](NC(=O)c1ncnc(N)c1Cl)c1ncc(C(=O)Nc2cc(C(F)(F)F)c(Cl)cn2)s1 + CC(Nc1ccc2c(c1)OCCn1cc(N3C(=O)OCC3C(F)F)nc1-2)C(N)=O ?
Output line: no

Input line: What would you report for CCCS(=O)(=O)Nc1ccc(F)c(C(=O)c2c[nH]c3ncc(-c4ccc(Cl)cc4)cc23)c1F + COc1c(OCCCN2CCOCC2)ccc2c3n(c(=NC(=O)c4cnc(N)nc4)nc12)CCN3 ?
Output line: no

Input line: What would you report for CC1(C)CCC(CN2CCN(c3ccc(C(=O)NS(=O)(=O)c4ccc(NCC5CCOCC5)c([N+](=O)[O-])c4)c(Oc4cnc5[nH]ccc5c4)c3)CC2)=C(c2ccc(Cl)cc2)C1 + Cc1nc(NC(=O)N2CCCC2C(N)=O)sc1-c1ccnc(C(C)(C)C(F)(F)F)c1 ?
Output line: no

Input line: What would you report for C=CC(=O)N1CCN(c2nc(=O)n(-c3c(C)ccnc3C(C)C)c3nc(-c4c(O)cccc4F)c(F)cc23)C(C)C1 (stereo not given) + CC(Nc1ncnc2nc[nH]c12)c1cc2cccc(Cl)c2c(=O)n1-c1ccccc1 ?
Output line: no

Input line: What would you report for C#Cc1c(F)ccc2cc(O)cc(-c3ncc4c(N5CC6CCC(C5)N6)nc(OCC56CCCN5CC(F)C6)nc4c3F)c12 (stereo not given) + CC(Nc1ccc2c(c1)OCCn1cc(N3C(=O)OCC3C(F)F)nc1-2)C(N)=O ?
Output line: yes

Input line: What would you report for C[C@@H](NC(=O)c1ncnc(N)c1Cl)c1ncc(C(=O)Nc2cc(C(F)(F)F)c(Cl)cn2)s1 + Cc1nc(NC(=O)N2CCCC2C(N)=O)sc1-c1ccnc(C(C)(C)C(F)(F)F)c1 ?
Output line: no

Input line: What would you report for Cn1ncc(Cl)c1-c1cc(C(=O)NC(CN)Cc2cccc(F)c2)sc1Cl (stereo not given) + Cc1nc(NC(=O)N2CCCC2C(N)=O)sc1-c1ccnc(C(C)(C)C(F)(F)F)c1 ?
Output line: yes

Input line: What would you report for C=CC(=O)N1CCN(c2nc(=O)n(-c3c(C)ccnc3C(C)C)c3nc(-c4c(O)cccc4F)c(F)cc23)C(C)C1 (stereo not given) + CC(Nc1ccc2c(c1)OCCn1cc(N3C(=O)OCC3C(F)F)nc1-2)C(N)=O ?
Output line: no

Input line: What would you report for Cn1ncc(Cl)c1-c1cc(C(=O)NC(CN)Cc2cccc(F)c2)sc1Cl (stereo not given) + CC(Nc1ccc2c(c1)OCCn1cc(N3C(=O)OCC3C(F)F)nc1-2)C(N)=O ?
Output line: yes

Input line: What would you report for C[C@@H](NC(=O)c1ncnc(N)c1Cl)c1ncc(C(=O)Nc2cc(C(F)(F)F)c(Cl)cn2)s1 + COc1c(OCCCN2CCOCC2)ccc2c3n(c(=NC(=O)c4cnc(N)nc4)nc12)CCN3 ?
Output line: yes

Input line: What would you report for CC1(C)CCC(CN2CCN(c3ccc(C(=O)NS(=O)(=O)c4ccc(NCC5CCOCC5)c([N+](=O)[O-])c4)c(Oc4cnc5[nH]ccc5c4)c3)CC2)=C(c2ccc(Cl)cc2)C1 + CC(Nc1ncnc2nc[nH]c12)c1cc2cccc(Cl)c2c(=O)n1-c1ccccc1 ?
Output line: no

Input line: What would you report for Cn1ncc(Cl)c1-c1cc(C(=O)NC(CN)Cc2cccc(F)c2)sc1Cl (stereo not given) + CC(Nc1ncnc2nc[nH]c12)c1cc2cccc(Cl)c2c(=O)n1-c1ccccc1 ?
Output line: yes

Input line: What would you report for Cn1nccc1Nc1nccc(-c2ccn(C(CO)c3ccc(Cl)c(F)c3)c(=O)c2)n1 (stereo not given) + Cc1nc(NC(=O)N2CCCC2C(N)=O)sc1-c1ccnc(C(C)(C)C(F)(F)F)c1 ?
Output line: no
